Molecular target: Cytochrome P450 2C9 (Homo sapiens) (UniProt P11712)
Sequence (P11712 whole entry, looked up): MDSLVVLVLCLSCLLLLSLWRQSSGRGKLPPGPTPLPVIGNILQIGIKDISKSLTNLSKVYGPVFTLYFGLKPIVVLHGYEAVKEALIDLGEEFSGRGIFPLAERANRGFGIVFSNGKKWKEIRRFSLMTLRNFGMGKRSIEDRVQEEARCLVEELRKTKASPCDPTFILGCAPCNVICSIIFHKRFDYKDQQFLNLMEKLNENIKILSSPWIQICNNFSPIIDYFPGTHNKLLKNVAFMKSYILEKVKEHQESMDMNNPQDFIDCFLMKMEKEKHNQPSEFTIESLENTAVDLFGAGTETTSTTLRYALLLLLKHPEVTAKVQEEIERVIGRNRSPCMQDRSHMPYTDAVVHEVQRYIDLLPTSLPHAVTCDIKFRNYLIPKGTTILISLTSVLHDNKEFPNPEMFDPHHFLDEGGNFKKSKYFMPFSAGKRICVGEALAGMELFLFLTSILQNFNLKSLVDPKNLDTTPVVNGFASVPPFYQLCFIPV
Assay: Cytochrome panel assay with activity outcomes
Details: recombinant CYP, pro-luciferin dealkylation, luminescence, p450-cyp2c9; series mostly up to 57.1 µM
The whole screen tested about 16,000 compounds, of which about 4,000 (25%) were called active. Inconclusive results (about 26%) are left out. Not all results are given here.
Assay readout: AC50

Cc1noc(C)c1C(=O)N1CCC2(CCCN(c3ccncc3)C2)CC1
inactive
Cc1noc(C)c1C(=O)N1CCC2(CCN(Cc3ccncc3)CC2)CC1
inactive
O=C(c1ccncc1)N1CCC2(CC1)CN(c1ccccc1)C2
2.51 µM (active)
Cc1ccc2nc(-c3ccccc3)cc(C(=O)NCCCn3ccnc3)c2c1
0.1 µM (active)
Cc1noc(C)c1C(=O)N1CCC2(CC1)CCN(c1ccncc1)CC2
10 µM (active)

INPUT: Recorded AC50 for `O=C(c1cccc(F)c1)N1CCC2(CC1)CN(c1ccncc1)C2` , please?
OUTPUT: 5.01 µM (active)

----------
Target: Cytochrome P450 2C9 (Homo sapiens)
Assay: Cytochrome panel assay with activity outcomes; on activity, negative = inhibition: on the % scale 0 is the no-effect control and ±100 the full control effect
Conditions: recombinant CYP, pro-luciferin dealkylation, luminescence, p450-cyp2c9; series mostly up to 57.1 µM
The campaign covered roughly 16,000 compounds. About 4,000 (25%) were called active. Not shown: some 26% with an inconclusive outcome. The list is a sample of the results.
Assay readout: activity, negative = inhibition

Observe how each entry below is paired with its result.
CCOC(=O)N/N=C1/C[C@@H](O)[C@@H](O)[C@@H]2[C@@H]3C(=O)N(Cc4ccccc4)C(=O)[C@H]3CC[C@@H]12
23.5% [at 11.4 µM] (inactive)
Cc1cc2ccccc2c[n+]1CC(O)C[n+]1cc2ccccc2cc1C
8.36% [at 11.4 µM] (inactive)
C[C@@](N)(Cc1c[nH]c2ccccc12)C(=O)O
-9.29% [at 11.4 µM] (inactive)
CN1CCN(c2ccnc(-c3ccc(N(C)C)cc3)n2)CC1
4.88% [at 2.29 µM] (inactive)
CC(C)=CCNc1ncnc2nc[nH]c12
-9.02% [at 11.4 µM] (inactive)
CN(C)C(=O)c1ccc(-c2cc(N(C)Cc3ccco3)ncn2)cc1
0.869% [at 2.29 µM] (inactive)

List reported activity, negative = inhibition for each of these compounds:
1. CCOC(=O)N/N=C1/C[C@@H](O)[C@@H](O)[C@@H]2[C@@H]3C(=O)N(Cc4ccccc4)C(=O)[C@H]3CC[C@H]12
2. C/C(CCN1CCc2nc(-c3ccccc3)c(-c3ccccc3)cc2C1)=N\OC[C@@H](O)COCc1ccco1
3. O=C(O)/C=C\C(=O)Nc1ccc2c(c1)C(=O)c1cc(F)ccc1-2
4. C[C@@H]1O[C@H]2C3=C(C(=O)[C@H]4O[C@@H]4[C@H]3O)[C@@H]1[C@@H]1[C@@H](C)OC=C3[C@H](O)[C@H]4O[C@@H]4/C(=N\OCc4ccccc4)[C@]312
5. O=S1(=O)N[C@H]2CC[C@@H]3NS(=O)(=O)N[C@H]4CC[C@H](N1)N4S(=O)(=O)N23
6. Cc1ccccc1-c1cncnc1Nc1ccccc1
7. NCCCc1c(-c2ccccc2)nc(N)[nH]c1=O
8. N#[N+]c1ccc(Nc2ccccc2)cc1

OUTPUT:
["-12.9% [at 11.4 µM] (inactive)", "-7.86% [at 11.4 µM] (inactive)", "-23.6% [at 11.4 µM] (inactive)", "-27.9% [at 11.4 µM] (inactive)", "-6.3% [at 11.4 µM] (inactive)", "-13.5% [at 2.29 µM] (inactive)", "-12.1% [at 11.4 µM] (inactive)", "5.95% [at 11.4 µM] (inactive)"]

Sourced from PubChem BioAssay AID1851
